Here, each record is paired with measured pIC50 data.
system: Serine/threonine-protein kinase mTOR (Homo sapiens)
run.description: Inhibition of mTOR in human MCF7 cells assessed as reduction in P70S6K phosphorylation after 4 hrs by […] assay
Type: cell-based
pIC50: −log10 of the molar value.

molecular.string: COc1ncc(-c2ccc3nccc(=O)n3c2)cc1NS(=O)(=O)c1ccccc1F
system: Serine/threonine-protein kinase mTOR (Homo sapiens)
pIC50: < 6.40
--
molecular.string: O=c1ccnc2ccc(-c3cnc(Cl)c(NS(=O)(=O)c4ccc(F)cc4F)c3)cn12
system: Serine/threonine-protein kinase mTOR (Homo sapiens)
pIC50: < 6.40

# input for lookup
Kindly note the recorded pIC50 for O=c1ccnc2ccc(-c3cnc(Cl)c(NS(=O)(=O)c4ccccc4F)c3)cn12 , which is < 6.40

Origin of values: ChEMBL document CHEMBL4251704
